As shown below, each of these compounds has a reported log10 of solubility at 24 h value.
# assayComment: Solubility (24 hrs equilibration at RT, HPLC-UV)
# Assay type: physicochemical
# details: pH 7.4, aqueous buffer, thermodynamic from solid; 0.1 M Phosphate Buffer, target concentration 5 mg/ml, 24 hrs at RT; read-out: Solubility pH 7.4
Form field - Quantity: solubility at 24 h; Unit: µg/mL; Scale: log10

Cc1cc(C)cc(C(=O)N(NC(=O)c2ccc3c(c2)B(O)NCC3)C(C)(C)C)c1 2.70
CNCc1ccc(C(=O)NN(C(=O)c2cc(C)cc(C)c2)C(C)(C)C)cc1B(O)O 3.69

GET /values?readout=log10 of solubility at 24 h&item= "Cc1cc(C)cc(C(=O)N(NC(=O)c2ccc3c(c2)N=COB3O)C(C)(C)C)c1" 1.60

Endpoint output: log10 of solubility at 24 h of "Cc1cc(C)cc(C(=O)N(NC(=O)c2ccc(B(O)O)c(NCC#N)c2)C(C)(C)C)c1" . Value? -0.89

What log10 of solubility at 24 h value was documented for this compound, "COc1cccc(C(=O)NN(C(=O)c2ccc3c(c2)B(O)OC3)C(C)(C)C)c1C" ? 1.63

I am curious: what log10 of solubility at 24 h value has been reported for "COc1cccc(C(=O)NN(C(=O)c2ccc(B(O)O)c(NS(=O)(=O)c3ccccc3)c2)C(C)(C)C)c1C" ? 0.84

What does the record list as log10 of solubility at 24 h for "Cc1cc(C)cc(C(=O)N(NC(=O)c2ccc3c(c2)NC(=S)N(c2ccccc2)B3O)C(C)(C)C)c1" ? 3.55

These entries and their values trace back to patent US9944659B2.
